measurement.target: T1, human soluble urokinase plasminogen activator receptor (hsuPAR) (human, UniProt Q03405 23-303, limits assumed)
T1 construct: also called human suPAR; rhuPAR-His
T1 sequence (Q03405 23-303 limits assumed): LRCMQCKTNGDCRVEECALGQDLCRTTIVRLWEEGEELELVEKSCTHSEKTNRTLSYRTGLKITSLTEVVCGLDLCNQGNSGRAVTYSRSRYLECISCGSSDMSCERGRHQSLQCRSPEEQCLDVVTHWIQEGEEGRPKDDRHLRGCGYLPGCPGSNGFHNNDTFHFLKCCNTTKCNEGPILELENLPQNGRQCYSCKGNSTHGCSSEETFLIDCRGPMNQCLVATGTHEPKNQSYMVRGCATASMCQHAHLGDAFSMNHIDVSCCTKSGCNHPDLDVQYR
experimental.details: BLI (Octet) off-rate screen of scFv
Kindly state koff for each of the entries shown.
One number for each entry, in s⁻¹.

[
  {
    "binder": "suPAR_DB02_C05 (scFv, V domains shown, Screened as scFv) VH: QVQLVQSGAEVKKPGASVKVSCKASGGTFSSYYMHWVRQAPGQGLEWMGWIDHENGNTIYDQKFQGRVTMTRDTSTSTVYMELSSLRSEDTAVYYCARGYDVDWFVYWGQGTLVTVSS VL: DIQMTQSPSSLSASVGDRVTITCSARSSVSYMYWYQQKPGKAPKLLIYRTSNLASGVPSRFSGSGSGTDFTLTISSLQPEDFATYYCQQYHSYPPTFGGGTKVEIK",
    "koff / s⁻¹": 0.00504
  }
]

Exam item: Return value of koff for input suPAR_DB02_A05 (scFv, V domains shown, Screened as scFv) VH: QVQLVQSGAEVKKPGASVKVSCKASGDTFTSYYMHWVRQAPGQGLEWMGWIDPENGNTIYAQKFQGRVTMTRDTSTSTVYMELSSLRSEDTAVYYCARGYDVDWFVYWGQGTLVTVSS VL: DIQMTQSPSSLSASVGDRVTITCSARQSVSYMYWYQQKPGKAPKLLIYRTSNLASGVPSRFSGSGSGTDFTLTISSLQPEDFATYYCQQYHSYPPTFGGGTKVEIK , no commentary.
Marked response: 0.00521
